- SYSTEM: UniProtKB P51681
- Sequence (P51681 whole entry): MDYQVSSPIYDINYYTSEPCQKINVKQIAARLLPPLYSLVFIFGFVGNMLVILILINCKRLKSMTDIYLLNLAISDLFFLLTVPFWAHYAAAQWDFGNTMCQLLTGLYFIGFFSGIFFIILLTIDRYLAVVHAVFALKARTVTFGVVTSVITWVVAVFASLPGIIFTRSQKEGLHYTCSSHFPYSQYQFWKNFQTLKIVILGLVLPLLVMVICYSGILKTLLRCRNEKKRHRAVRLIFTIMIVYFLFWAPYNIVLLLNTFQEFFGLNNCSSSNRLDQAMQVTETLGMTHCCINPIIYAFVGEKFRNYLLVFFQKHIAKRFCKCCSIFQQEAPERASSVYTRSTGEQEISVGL
- EXPERIMENTAL DETAILS: Inhibition of CCR5: [35S]GTPγS binding assays (filtration, SPA-WGA) and calcium influx assay, 10 nM RANTES, CHO-CCR5
- RUN PARAMETERS: inhibition of GTPγS binding induced by 10 nM RANTES, CHO-CCR5
PROPERTY: IC50 (nM)

input: Look up IC50 of CC(=O)N1CCC(C(=O)N(CCCN2[C@@H]3CC[C@H]2C[C@H](NC(=O)Cc2ccc(Cl)cc2)C3)c2ccc(C)c(Cl)c2)CC1 [Compound 7c] and report it.
output: 15.1

P = CC(=O)N1CCC(C(=O)N(CCCN2[C@@H]3CC[C@H]2C[C@H](NS(=O)(=O)c2cccc([N+](=O)[O-])c2)C3)c2ccc(C)c(Cl)c2)CC1 [Compound 9d]
Q = CC(=O)N1CCC(C(=O)N(CCCN2[C@@H]3CC[C@H]2C[C@H](NC(=O)Cc2ccc(Cl)c(Cl)c2)C3)c2ccc(C)c(Cl)c2)CC1 [Compound 7h]
input: Hi there, can you help? I need to know whether P or Q has lower measured IC50. Refer to your chosen item by its label in the answer.
output: P
(P: 2.59 nM, Q: 4.89 nM)

src = patent US8410094B2
